- System: SNB-19 CNS
- assay text: NCI tumour cell line growth inhibition, 48 h
Measured TGI values are reported for all entries that follow.

Below: 2 molecules and their reported TGI.
molecule: CN1C(=O)C(CCO)(C(C)(C)C)c2ccccc21 (stereo not drawn)
TGI: > 100 µM
--
molecule: O=C1Sc2cc3ccccc3cc2C(=O)Sc2cc3ccccc3cc21
TGI: > 100 µM

Lab note: next molecule to report on.
Request: TGI, test system SNB-19 CNS, entry CCCN(CCCCC(NC(C)=O)C(=O)NCc1ccccc1)C(=O)NCCCl (stereo not drawn)
> 100 µM

----------
- Tested on: NCI-H522 lung
- assay text: NCI tumour cell line growth inhibition, 48 h
measurement type: TGI

Below: 3 compounds and their reported TGI.
compound: CC(C)N(C(=O)C12C3C4C5(C#N)C3C1(I)C5C42I)C(C)C (centres undefined)
result: > 100 µM
//
compound: COc1ccc(C2C3=CONC3CC3CCCCC32)cc1 (centres undefined)
result: > 100 µM
//
compound: O=C1C(Cl)C(c2cccc(O)c2)N1n1cnc2ccccc2c1=O (centres undefined)
result: > 100 µM

Request: TGI, test system NCI-H522 lung, entry `CC(=O)Nc1ccc(C(=O)N2N=C(C)/C(=C/c3ccccc3O)C2=O)cc1`
> 100 µM

Request: TGI, test system NCI-H522 lung, entry CC(CN(CP(=O)([O-])[O-])CP(=O)([O-])[O-])N(CP(=O)([O-])[O-])CP(=O)([O-])[O-].N.N.[Pt+2] (centres undefined)
> 100 µM

Request: TGI, test system NCI-H522 lung, entry `C/C(=N/S(=O)(=O)c1ccc(Cl)c(Cl)c1)OCC(C)(C)C`
> 100 µM

Request: TGI, test system NCI-H522 lung, entry `C/C(=C\COP(=O)(O)OP(=O)(O)O)CC/C=C(\C)CNc1ccccc1`
> 50 µM

Request: TGI, test system NCI-H522 lung, entry `CCC(=O)Nc1ccc(N2C(=O)/C(=C/c3ccc(O)c(OC)c3)N=C2c2ccccc2)cc1`
> 100 µM

Request: TGI, test system NCI-H522 lung, entry `O=c1cc(C(F)(F)F)c2cc3c(cc2o1)NCCC3`
> 100 µM
